// values below are reported inhibition at 1 µM
tested on: MCF-7 cells; assay: cells; type: cell-based; conditions: Homo sapiens, MCF7, 96 h; With estradiol (E2); 1 μM; read-out: Antagonism at 1 μM (% of full antagonism)
Could you give me the number in %? Just the number is fine.

# annotated cases, reported inhibition at 1 µM shown
{"compound": "OCCSc1ccc(/C(=C(/CCCl)c2ccccc2)c2ccccc2)cc1", "propertyLabel": "inhibition at 1 µM", "unitSymbol": "%", "measuredValue": 13}
{"compound": "OCCNc1ccc(/C(=C(/CCCl)c2ccccc2)c2ccccc2)cc1", "propertyLabel": "inhibition at 1 µM", "unitSymbol": "%", "measuredValue": 10}
{"compound": "CN(CCO)CCOc1ccc(/C(=C(/CCCl)c2ccccc2)c2ccccc2)cc1", "propertyLabel": "inhibition at 1 µM", "unitSymbol": "%", "measuredValue": 12}
{"compound": "CN(C)CCSc1ccc(/C(=C(/CCCl)c2ccccc2)c2ccccc2)cc1", "propertyLabel": "inhibition at 1 µM", "unitSymbol": "%", "measuredValue": 0}
{"compound": "OCC(O)COc1ccc(/C(=C(/CCCl)c2ccccc2)c2ccc(Cl)cc2)cc1 (centres unmarked)", "propertyLabel": "inhibition at 1 µM", "unitSymbol": "%", "measuredValue": 0}
{"compound": "COc1ccccc1/C(CCCl)=C(/c1ccccc1)c1ccc(OCCN2CCCCC2)cc1", "propertyLabel": "inhibition at 1 µM", "unitSymbol": "%", "measuredValue": 4}

Kindly state the measured inhibition at 1 µM obtained for "CCC(O)(CC)COc1ccc(/C(=C(/CCCl)c2ccccc2)c2ccccc2)cc1" with MCF-7 cells.
3

Kindly state the measured inhibition at 1 µM obtained for "C#CCN(C)CCOc1ccc(/C(=C(/CCCl)c2ccccc2)c2ccccc2)cc1" with MCF-7 cells.
8

Kindly state the measured inhibition at 1 µM obtained for "Oc1cccc(/C(=C(\CCCl)c2ccccc2)c2ccc(OCCn3ccnc3)cc2)c1" with MCF-7 cells.
17

Kindly state the measured inhibition at 1 µM obtained for "Oc1cccc(/C(=C(/CCCl)c2ccccc2)c2ccc(OCCn3ccnc3)cc2)c1" with MCF-7 cells.
3

Kindly state the measured inhibition at 1 µM obtained for OCC(O)COc1ccc(/C(=C(/CCCl)c2ccccc2)c2ccccc2)cc1 (centres unmarked) with MCF-7 cells.
25
